The compounds listed here are annotated with their IC50.
Target: BRD4 BD1 (Homo sapiens, UniProt O60885)
Assay: AlphaScreen binding assay, BRD4 Bromodomain 1
Procedure: The binding of Example compounds to BRD4 Bromodomain 1 and BRD4 Bromodomain 2 was assessed using 384-well AlphaScreen assay technology. His-epitope tagged BRD4 BD144-168 and BRD4 BD2333-460 were cloned, expressed, and purified to homogeneity. BRD4 BD1 and BRD4 BD2 binding and inhibition was assessed by monitoring the engagement of biotinylated Histone H4 (1-21) K5/8/12/16 tetra-acetylated peptide with the targets using the AlphaScreen technology (PerkinElmer). […]

// below: answered compounds
test_smiles=CC(=O)N1c2ccccc2N(S(=O)(=O)Cc2ccccc2)C[C@@H]1C test_system="BRD4 BD1 (Homo sapiens, UniProt O60885)" result="> 10000 nM"
test_smiles=CC(=O)N1c2ccc(-c3cnn(C4CC4)c3)cc2N(C(=O)OC(C)C)C[C@@H]1C test_system="BRD4 BD1 (Homo sapiens, UniProt O60885)" result="100 to 1000 nM"
test_smiles=COC(=O)N1c2ccc(-c3ccc(C(=O)N4CC[C@H](N(C)C)C4)cc3)cc2N(C(=O)OC(C)C)C[C@@H]1C test_system="BRD4 BD1 (Homo sapiens, UniProt O60885)" result="100 to 1000 nM"
test_smiles=COC(=O)N1c2ccc(-c3ccc(C(=O)N4CC[C@H](NC(C)=O)C4)cc3)cc2N(C(=O)OC(C)C)C[C@@H]1C test_system="BRD4 BD1 (Homo sapiens, UniProt O60885)" result="100 to 1000 nM"
test_smiles=CC(=O)N1c2ccc(-c3ccc(F)c(S(C)(=O)=O)c3)cc2N(C(=O)C2CCC2)C[C@@H]1C test_system="BRD4 BD1 (Homo sapiens, UniProt O60885)" result="1000 to 10000 nM"
test_smiles=CNC(=O)CN(C)C(=O)c1ccc(-c2ccc3c(c2)N(C(=O)OC(C)C)C[C@H](C)N3C(=O)C2CC2)cc1 test_system="BRD4 BD1 (Homo sapiens, UniProt O60885)" result="100 to 1000 nM"

Looking for the measured IC50 of `CC(=O)N1c2ccc(-c3ccc(N4CCCS4(=O)=O)cc3)cc2N(C(=O)C2CC2)C[C@@H]1C` , can you help? 100 to 1000 nM

---

Examples of molecules with documented pIC50 follow.
Target: BRD4 BD1 (Homo sapiens, UniProt O60885)
Experiment: AlphaScreen binding assay, BRD4 Bromodomain 1
pIC50: −log10 of the molar value.

The following molecules have reported results that may help.
molecule="CC(=O)N1c2ccc(-c3ccc(S(C)(=O)=O)cc3)cc2N(C(=O)c2ccc(CN)o2)C[C@@H]1C [Example I-890]" test_system="BRD4 BD1 (Homo sapiens, UniProt O60885)" recorded_metric=pIC50 result="5.00 to 6.00"
molecule="COC(=O)N1c2ccc(-c3cnn(CCS(C)(=O)=O)c3)cc2N(C(=O)Oc2ccccn2)C[C@@H]1C [Example I-1319]" test_system="BRD4 BD1 (Homo sapiens, UniProt O60885)" recorded_metric=pIC50 result="5.00 to 6.00"
molecule="CC(=O)N1c2ccc(-c3cnn(C4COC4)c3)cc2N(C(=O)OCC(C)(C)F)C[C@@H]1C [Example I-77]" test_system="BRD4 BD1 (Homo sapiens, UniProt O60885)" recorded_metric=pIC50 result="> 7.00"

I'd like to know its pIC50. The molecule in question is CC(C)OC(=O)N1C[C@H](C)N(C(=O)C2CC2)c2ccc(-c3ccc(N4CCCS4(=O)=O)cc3)cc21 [Example I-470] 6.00 to 7.00

Dear colleague, I am looking for the recorded pIC50 of the following molecule: CC(=O)N1c2ccc(-c3cnn(CC4CCS(=O)(=O)CC4)c3)cc2N(C(=O)OC(C)C)C[C@@H]1C [Example I-595] 6.00 to 7.00

Field request: pIC50 | item: CC(=O)N1c2ccc(-c3ccc4c(c3)CS(=O)(=O)N4)cc2N(C(=O)OC(C)C)C[C@@H]1C [Example I-1179] 6.00 to 7.00

May I ask what pIC50 has been recorded for CC(=O)N1c2ccccc2N(S(=O)(=O)c2ccc(C#N)cc2)C[C@@H]1C [Example I-938] ? < 5.00

---

Target: BRD4 BD1 (Homo sapiens, UniProt O60885)
Assay: AlphaScreen binding assay, BRD4 Bromodomain 1
pIC50: −log10 of the molar value.
Reported pIC50 values are given for each entry in this list.

These solved cases illustrate the format of a correct answer.
compound="C[C@H]1CN(C(=O)C2CC2)c2cc(-c3cnc(N)cn3)ccc2N1C(=O)C1CC1 [Example I-442]" recorded_metric=pIC50 result="5.00 to 6.00"
compound="CC(=O)N1c2ccc(-c3cnn(CC4CC4)c3)cc2N(C(=O)OC(C)C)C[C@@H]1C [Example I-308]" recorded_metric=pIC50 result="6.00 to 7.00"

Find the recorded pIC50 belonging to CC(=O)N1c2ccc(-c3ccc(N4CCCC4)cc3)cc2N(C(=O)c2ccco2)C[C@@H]1C [Example I-298] and report it. 5.00 to 6.00

What value of pIC50 has been reported for the following compound? CC(=O)N1c2ccc(-c3cccc(S(=O)(=O)N(C)C)c3)cc2N(C(=O)C2CC2)C[C@@H]1C [Example I-1046] 5.00 to 6.00

---

In this section, each of the compounds is paired with its reported IC50.
Biological target: BRD4 BD1 (Homo sapiens)
Assay: AlphaScreen binding assay, BRD4 Bromodomain 1

What value of measured IC50 is listed for `CC(=O)N1c2ccc(-c3cnn(C(C)(C)CO)c3)cc2N(C(=O)OC(C)C)C[C@@H]1C` ? 0.1 to 1 µM

Name the reported IC50 value associated with the compound `CNC(=O)Cn1cc(-c2ccc3c(c2)N(C(=O)OC(C)C)C[C@H](C)N3C(C)=O)cn1` 0.1 to 1 µM

For the compound `CC(=O)N1c2ccc(-c3cnn(Cc4ccccn4)c3)cc2N(C(=O)C2CC2)C[C@@H]1C` , what IC50 is on record? 0.1 to 1 µM

Record request: IC50 value, item `CC(=O)N1c2ccccc2N(C(=O)c2ccc(C(C)C)nc2)C[C@@H]1C` > 10 µM

---

Target: BRD4 BD1 (Homo sapiens, UniProt O60885)
Test: AlphaScreen binding assay, BRD4 Bromodomain 1
pIC50: −log10 of the molar value.
RECORDED METRIC: pIC50

// worked examples, pIC50 included
test_smiles=CC(=O)N1c2ccccc2N(C(=O)COc2ccc3ccccc3c2)C[C@@H]1C result="< 5.00"
test_smiles=CC(=O)N1c2ccc(-c3cnn(C4CC4)c3)cc2N(C(=O)Oc2ccc3ncccc3c2)C[C@@H]1C result="> 7.00"
test_smiles=CC(=O)N1c2ccc(-c3cnn(CCS(C)(=O)=O)c3)cc2N(C(=O)Oc2ccc(F)cc2)C[C@@H]1C result="5.00 to 6.00"
test_smiles=CC(=O)N1c2ccc(N(C)c3ccccc3)cc2N(C(=O)c2ccco2)C[C@@H]1C result="5.00 to 6.00"
test_smiles=CC(=O)N1c2ccc(-c3cnn(CC(F)F)c3)cc2N(C(=O)OC(C)C)C[C@@H]1C result="6.00 to 7.00"
test_smiles=COC(=O)N1c2ccc(-c3ccc4c(c3)CCN4S(C)(=O)=O)cc2N(C(=O)Oc2cccnc2)C[C@@H]1C result="5.00 to 6.00"

// below: pIC50 requested for another molecule
Recorded pIC50 for `CC(=O)N1c2ccc(-c3ccc(S(C)(=O)=O)cc3)cc2N(C(=O)OCc2ccccc2)C[C@@H]1C` , please? < 5.00

---

Biological target: BRD4 BD2 (Homo sapiens)
Test: AlphaScreen binding assay, BRD4 Bromodomain 2
pIC50: −log10 of the molar value.
Examples of compounds with documented pIC50 follow.

compound="COc1ccc(-c2ccc3c(c2)N(C(=O)OC2CCOCC2)C[C@H](C)N3C(C)=O)cc1NS(C)(=O)=O [Example I-1272]" test_system="BRD4 BD2 (Homo sapiens)" recorded_metric=pIC50 result="6.30 to 7.30"

Fill in: pIC50 of COC(=O)N1c2ccc(-c3cnn(C4COC4)c3)cc2N(C(=O)OC(C)C)C[C@@H]1C [Example I-326] is ___ 6.30 to 7.30

For the compound shown here, CC(=O)N1c2ccc(-c3cnn(C4CCCS(=O)(=O)C4)c3)cc2N(C(=O)C2CC2)C[C@@H]1C (stereo partly shown) [Example I-1310] , give the reported pIC50. 6.30 to 7.30

Look at this compound and give its reported pIC50. CC(=O)N1c2ccc(-c3ccc(S(C)(=O)=O)cc3)cc2N(C(=O)OC2CCC2)C[C@@H]1C [Example I-493] 6.30 to 7.30

Find the recorded pIC50 belonging to CC(=O)N1c2ccc(-c3ccc(S(C)(=O)=O)cc3)cc2N(C(=O)NCC(C)C)C[C@@H]1C [Example I-978] and report it. < 6.30

Data request, read-out pIC50, for COc1ccc(S(=O)(=O)N2C[C@H](C)N(C(C)=O)c3ccccc32)c(C)c1 [Example I-960] < 6.30

Request the reported pIC50 associated with C[C@H]1CN(C(=O)OC2CCCC2)c2cc(-c3cnn(C4CC4)c3)ccc2N1C(=O)C1CC1 [Example I-41] 6.30 to 7.30
